Procedure summary: Plasma protein binding (equilibrium dialysis), human
Format: in vitro ADME
Test parameters: Hu (human plasma), recovery in plasma protein binding assay; read-out: (% Recovery)
Reported metric: recovery at 4 h, 2 μM (%)
Give just the number in %; leave the unit off.

[in] Item under review: C[C@@H](O)[C@@H]1NC(=O)[C@H](CCCCN)NC(=O)[C@@H](Cc2c[nH]c3ccccc23)NC(=O)[C@H](Cc2ccccc2)NC(=O)[C@@H](NC(=O)[C@H](N)Cc2ccccc2)CSSC[C@@H](C(=O)N[C@H](CO)[C@@H](C)O)NC1=O [Octreotide Acetate, reference compound] . Reported recovery at 4 h, 2 μM?
[out] 84.3

---

Procedure summary: Plasma stability, mouse
Test parameters: CD-1, mouse, pH 7.4, Plasma Stability (t 1/2), Mu, 2 μM, 37° C.
Reported metric: half-life at 2 μM
Answer with the number, then the unit.

[in] I am curious: what half-life at 2 μM value has been reported for CC(C)[N+](C)(CCOC(=O)C1c2ccccc2Oc2ccccc21)C(C)C [Propantheline bromide, reference compound] ?
[out] 44.8 min

---

Procedure summary: Plasma stability, human
Test parameters: pH 7.4, Plasma Stability (t 1/2), Hu, 2 μM, 37° C.
Reported metric: half-life at 2 μM (min)
State the answer as a number, implicitly in min.

[in] Look up half-life at 2 μM for this compound: CC(C)[N+](C)(CCOC(=O)C1c2ccccc2Oc2ccccc21)C(C)C [Propantheline bromide, reference compound]
[out] 11.6
